cell viability reference
Test system: P12-Ichikawa
TEST SUMMARY: cell viability relative to DMSO control; higher = less cytotoxic
REPORTED CONDITIONS: RPMI 5 mM glucose + 10% dialyzed FBS; 48 h; 0.00702 µM
Quick note: unit goes after the number.

Consider the worked cases shown below.
> print(dat)
                                    molecule  observed.result
 1  Cc1ccc(Nc2nccc(N(C)c3ccc4c(C)n(C)nc4c3)n2)cc1[S+](N)(=O)[O-]             104%
 2  CN1\C(=C(O)/C2=C(C=C(Cl)S2)[S+]1([O-])=O)C(=O)NC3=NC=CC=C3             125%
 3  CCCCCCCN(CC)CCCC(O)c1ccc(NS(C)(=O)=O)cc1.CCCCCCCN(CC)CCCC(O)c1ccc(NS(C)(=O)=O)cc1.O=C(O)/C=C/C(=O)O (stereo unspecified)             106%
 4  COC1=CC=CC(=C1/C2=N/CC3=C(N=C(NC4=CC(=C(C=C4)C(O)=O)OC)N=C3)C5=CC=C(Cl)C=C25)F            77.8%
 5  N[C@@H](Cc1cc(I)c(Oc2cc(I)c(O)c(I)c2)c(I)c1)C(=O)O             108%
 6  Cc1ccnc(N[S+](=O)([O-])c2ccc(NC(=O)Nc3ccc([S+](=O)([O-])Nc4nccc(C)n4)cc3)cc2)n1            95.4%
 7  COCCNCCCn1c(C(=O)CF)c(-c2ccc(C)cc2)c2c(N)ncnc21             116%
 8          CN1CCC(=C2c3ccccc3CCc3sccc32)CC1             113%
 9  Cc1nc(C(=O)NCC(=O)O)c(O)c2ccc(Oc3ccccc3)cc12             102%
10  Clc1ccc(C(Cn2ccnc2)OCc2ccc(Sc3ccccc3)cc2)c(Cl)c1 (stereo unspecified)             111%

Next, consider the following molecule.
Request: What value of cell viability on P12-Ichikawa does "O=C(N[C@H]1CN2CCC1CC2)c1ccc(Cl)cc1" have?
Result: 104%

---

Tested on: NOMO1
TEST SUMMARY: cell viability relative to DMSO control; higher = less cytotoxic
REPORTED CONDITIONS: RPMI 5 mM glucose + 10% dialyzed FBS; 48 h; 0.19 µM
cell viability reference
Report only the number, with the unit % understood.

Request: Quick one: cell viability of "Cc1ccc(Nc2nccc(N(C)c3ccc4c(C)n(C)nc4c3)n2)cc1[S+](N)(=O)[O-]" ?
Result: 112

Request: Quick one: cell viability of "Cc1cccc(Nc2nc(N[C@@H]3CCCC[C@@H]3N)ncc2C(N)=O)c1" ?
Result: 115

---

Tested on: SEM cells
TEST SUMMARY: cell viability relative to DMSO control; higher = less cytotoxic
REPORTED CONDITIONS: RPMI 5 mM glucose + 10% FBS; 48 h; 15.4 µM
cell viability reference

> print(dat)
                               entry.smiles  tested.target  observed.result
1  CC1CCN(c2cc(N3CCN(C)CC3)ccc2NC(=O)c2cc(C#N)c[nH]2)CC1      SEM cells             102%

Request: What value of cell viability on SEM cells does "CC(C)C1=N[N](C\2=C1C(=O)N\C(=N2)CC3=CC=C(OCCO)C=C3)C4=C(Cl)C=CC=C4Cl" have?
Result: 4.05%

Request: What value of cell viability on SEM cells does "NCC/1=C/NC(=S)N1[C@H]2CCC3=C(F)C=C(F)C=C3C2" have?
Result: 108%

Request: What value of cell viability on SEM cells does "CC(=O)O[C@@]12CO[C@@H]1C[C@H](O)[C@]3(C)[C@@H]2[C@H](OC(=O)C4=CC=CC=C4)[C@]5(O)C[C@H](O)/C(=C(/[C@@H](O)C3=O)C5(C)C)C" have?
Result: 18.1%
